ASSAY_PROTOCOL: Binding affinity to 5'-FAM/3'-TAMRA labeled c-MYC 22-mer G-quadruplex DNA (unknown origin) assessed as change in melting temperature at 4 uM after 12 hrs by TR-FRET assay
Grouping by measured ΔTm is done with the following cut points: low: < 7 °C; mid: ≥ 7 °C and < 9 °C; high: ≥ 9 °C

Before answering, review these 5 worked examples.
>  <CHEMICAL_STRING>
N=C(N)c1ccc(/N=N/Nc2cccc(C#Cc3ccc(F)cc3)c2)cc1

>  <GROUP>
mid

$$$$
>  <CHEMICAL_STRING>
C#Cc1ccc(N/N=N/c2ccc(C(=N)N)cc2)cc1

>  <GROUP>
low

$$$$
>  <CHEMICAL_STRING>
C#Cc1cccc(N/N=N/c2ccc(C(=N)N)cc2)c1

>  <GROUP>
mid

$$$$
>  <CHEMICAL_STRING>
N#Cc1cccc(N/N=N/c2ccc(C(=N)N)cc2)c1

>  <GROUP>
low

$$$$
>  <CHEMICAL_STRING>
N#Cc1ccc(N/N=N/c2ccc(C(=N)N)cc2)cc1

>  <GROUP>
high

$$$$

Which category does the recorded ΔTm put COc1ccc(C#Cc2cccc(N/N=N/c3ccc(C(=N)N)cc3)c2)cc1 in? mid

C[n+]1ccc(-c2c3nc(c(-c4cc[n+](C)cc4)c4ccc([nH]4)c(-c4cc[n+](C)cc4)c4ccc([nH]4)c(-c4cc[n+](C)cc4)c4nc2C=C4)C=C3)cc1 , same question. high

Another: N=C(N)c1ccc(/N=N/Nc2ccccc2C#Cc2ccccc2)cc1 low

What would you report for N=C(N)c1ccc(/N=N/Nc2ccncc2)cc1 ? low

Now this one: N=C(N)c1ccc(/N=N/Nc2ccc(C(=N)N)cc2)cc1 high

Item: N=C(N)c1ccc(/N=N/Nc2cccc(C#Cc3ccccn3)c2)cc1 high
